Consider the following compounds; for each one, report its cytotoxicity at 10 µM.
Assay: Toxicity liver stage against HepG2, at 10uM
Assay type: cell-based
Parameters: test concentration 10 uM, cell line HepG2-A16-CD81EGFP
Conditions: human, HepG2-A16-CD81EGFP cells; read-out: INHIBITION
One number for each entry, in %.

compound | cytotoxicity at 10 µM / %
CN(C)CCNCCC(Cc1ccccc1)C1CCOC(C)(C)C1 (stereo unspecified) | 1.51
CCCn1cc(C(=O)N2CCCC(Cc3nccs3)C2)cn1 (stereo unspecified) | -11.4
CCOC(=O)c1sc(NC(=O)C(C)(C)C)c(C#N)c1C | 9.04
Cc1cccc(CN2CCc3ncnc(N4CCCC4)c3CC2)n1 | -145
CN(C)C(=O)CN1CCC2(CCN(CC3CC3)CC2)C1=O | -3.69
CN(C)C(=O)CN1CC[C@@H]2O[C@@H](COCc3cccnc3)CC[C@@H]21 | -67.2

Would you mind listing cytotoxicity at 10 µM for each of the following compounds?
1. CC(C)c1nc(CN(C)C(=O)c2ccc(CN3CCCCC3)cc2)cs1
2. CC(C)CCN1CC2(CCN(C(=O)C3(C)CCCCO3)CC2)OC1=O (stereo unspecified)
3. CCc1cc(C)nc(N2CCN(C(C)c3nc(C)no3)CC2)n1 (stereo unspecified)

Result:
-6.1
-14.4
-2.64

###

Kindly state cytotoxicity at 10 µM for each of the entries shown.
Experiment: Toxicity liver stage against HepG2, at 10uM
Assay type: cell-based
Design: test concentration 10 uM, cell line HepG2-A16-CD81EGFP
Details: human, HepG2-A16-CD81EGFP cells; read-out: INHIBITION
Give bare numbers, in %.

Known results for molecules:
molecule | quantity | measurement-units | recorded-result
Cc1cnn(CCCNC(=O)NC2CCN(CC(F)(F)F)C2=O)c1 (stereo unspecified) | cytotoxicity at 10 µM | % | 5.79
O=C(CN1CCCC1Cn1cccn1)NCCC1=CCCCC1 (stereo unspecified) | cytotoxicity at 10 µM | % | -2.78
CN(Cc1cccc(F)c1)C(=O)CN1CCCC(Cn2cncn2)C1 (stereo unspecified) | cytotoxicity at 10 µM | % | 4.64

For every item below, please supply its cytotoxicity at 10 µM.
1. CC(C)OCc1ccccc1CNC(=O)C(C)(C)C
2. CNc1cccc(C2CCN(C(C)=O)CC2)n1
3. O=C(NCc1cccnc1)C1=NOC2(CCN(S(=O)(=O)C3CC3)C2)C1 (stereo unspecified)

Result:
[-8.11, 7.49, -7.36]

###

Assay: Toxicity liver stage against HepG2, at 10uM
Format: cell-based
Parameters: test concentration 10 uM, cell line HepG2-A16-CD81EGFP
Conditions: human, HepG2-A16-CD81EGFP cells; read-out: INHIBITION
For each record, write down the corresponding cytotoxicity at 10 µM.
Give bare numbers, in %.

// below: answered compounds
compound | quantity | measurement-units | recorded-result
O=C(Cc1n[nH]c(-c2cncc(Br)c2)n1)NCc1cccnc1 | cytotoxicity at 10 µM | % | 2.74
O=S(=O)(NC[C@H]1OC[C@@H](NCc2cccs2)[C@@H]1O)c1ccccc1 | cytotoxicity at 10 µM | % | 3.98
O=C(CN(Cc1cccs1)C1CCS(=O)(=O)C1)NC1CCCCC1 (centres undefined) | cytotoxicity at 10 µM | % | -7.53

// batch mode: one cytotoxicity at 10 µM value per listed entry
1. CCCc1cc(=O)[nH]c2nnc(SCC(=O)OC)n12
2. CCc1nc(C)c(C(=O)NCCNc2ncccc2C#N)s1
3. O=C(CCOCc1ccccc1)NS(=O)(=O)N1CCOc2ccccc21
4. CCCNC(=O)c1ccc(S(=O)(=O)NC2(COC)CCCC2)cc1
5. CN(C)[C@@H]1CCN(S(C)(=O)=O)[C@H]1Cc1ccccc1
6. CN1CCN(C2CCCC2)C(CCO)C1 (centres undefined)
7. Cn1cc(C(=O)NC[C@@H]2OC[C@H]3CN(Cc4ccco4)CC[C@H]32)cn1

Result:
[12.2, -8.54, 9.15, -49.9, 11.7, 0.456, -13.4]

Please report cytotoxicity at 10 µM for every entry that follows.
1. Cc1cc(-n2cccn2)ccc1CN1CCC(O)(CN2CCCCC2)C1 (centres undefined)
2. CN(C)C(=O)Cc1nc(CN2CCn3c(nnc3C3CC3)C2)cs1

Result:
1: 6.2; 2: -9.66

I have 8 compounds here; please give me cytotoxicity at 10 µM for each one.
1. CCOC1CCCN(C(=O)NCCc2ccn(-c3ccccc3)n2)C1 (centres undefined)
2. O=C(c1ccc[nH]1)N1CCc2cc(S(=O)(=O)N3CCOCC3)ccc2C1
3. Cc1noc([C@@H]2C[C@@H]3CCN(CC4CCOCC4)C[C@H]3O2)n1
4. COc1c(CNCc2ccc(C(=O)N(C)C(C)C)cc2)c(C)nn1C
5. CNc1cc(C2CN(Cc3csc(C)n3)CCO2)nc(C)n1 (centres undefined)
6. Cc1nc(C)n(CC2CN(CCOc3ccccc3C#N)CCO2)n1 (centres undefined)
7. CC(=O)N1CCO[C@@H]2CN(S(=O)(=O)c3cccnc3)C[C@@H]2C1
8. O=S(=O)(Cc1ccccc1)NCCc1nnc2n1CCC2

Result:
3.13
-3.44
-130
33.2
-1.6
-7.45
3.02
14.5

Look at each compound and report its cytotoxicity at 10 µM.
1. CCC1CN(CC(=O)Nc2cc(C)nn2C)CCO1 (centres undefined)
2. CCC(=O)NCC(Cc1cccc(F)c1)n1cccc1 (centres undefined)

Result:
1. 1.14
2. -0.765

###

Assay: Toxicity liver stage against HepG2, at 10uM
Type: cell-based
Parameters: test concentration 10 uM, cell line HepG2-A16-CD81EGFP
Conditions: human, HepG2-A16-CD81EGFP cells; read-out: INHIBITION
Answer each item with its documented cytotoxicity at 10 µM.
Answers are plain numbers, in %.

Before answering, review these 3 worked examples.
molecule | recorded-result
CNc1cc(N2CCCC2CNCc2ccco2)ncn1 (configuration not stated) | -10.4
O=C(O)CCC(=O)N1CCC(c2noc3cc(F)ccc23)CC1 | -14.8
CN(Cc1nc(-c2ccccc2)no1)Cc1cnc(N2CCOCC2)s1 | -1.48

Batch of 4 molecules: report cytotoxicity at 10 µM for each.
1. CSc1ccc(OCCN2CCNC(=O)CC2)cc1
2. O=C(c1ccnnc1)N1C[C@H]2CCC[C@@]2(COCC2CCOCC2)C1
3. O=C(CC1CC1)N1CCC2(CC1)CN(c1cccnc1)C(=O)CO2
4. Cc1ccccc1SC1CCN(C(=O)C2CNC(=O)N2)CC1 (configuration not stated)

Result:
[5.59, -3.04, -90.8, -2.22]

###

What cytotoxicity at 10 µM was measured for each of the following?
Experiment: Toxicity liver stage against HepG2, at 10uM
Format: cell-based
Set-up: test concentration 10 uM, cell line HepG2-A16-CD81EGFP
Details: human, HepG2-A16-CD81EGFP cells; read-out: INHIBITION
Answers are plain numbers, in %.

compound | recorded-result
CC1CCN(S(=O)(=O)NCC2CCOc3ccccc3C2)CC1 (stereo not drawn) | -1.25
Cn1cc(NS(=O)(=O)c2ccc(C(F)(F)F)cc2)ccc1=O | 6.08
CCC(NC(=O)NCc1cccc(N(C)C)n1)c1nccs1 (stereo not drawn) | 23.3

I'm hoping you can list cytotoxicity at 10 µM for every compound here, please.
1. NC(=O)CSCCC(=O)NCC1CC1
2. Cc1cn2nc(N3CCCC3C(=O)N3CCN(C)CC3)sc2n1 (stereo not drawn)
3. N#Cc1csc(CN(CC(=O)N2CCCC2)CC2CCCO2)c1 (stereo not drawn)
4. Oc1nnc(-c2cccs2)c2sc(N3CCCC3)nc12
5. CNC(=O)NCC1CCC2(CCN(c3ncccn3)CC2)CO1 (stereo not drawn)

Result:
1. 6.2
2. -12.6
3. -6.26
4. -2.73
5. -107

###

Experiment: Toxicity liver stage against HepG2, at 10uM
Type: cell-based
Parameters: test concentration 10 uM, cell line HepG2-A16-CD81EGFP
Details: human, HepG2-A16-CD81EGFP cells; read-out: INHIBITION
Could you please report measured cytotoxicity at 10 µM for the items listed next?
Answers are plain numbers, in %.

Record excerpt, results attached:
compound | quantity | recorded-result
Cc1ccc(S(=O)(=O)N2CCC(Oc3ccccn3)CC2)c(C)c1 | cytotoxicity at 10 µM | 26.3
O=C(c1cnc(-c2ncccn2)s1)N1CCCC1Cn1cccn1 (stereo unspecified) | cytotoxicity at 10 µM | -5.97
CN(C)c1ccc(CNC2=NCCCN2)cc1 | cytotoxicity at 10 µM | -39.9
CO[C@@H]1CCN(C(=O)c2ccsc2)[C@@H]2CN(CC3CC3)C[C@@H]21 | cytotoxicity at 10 µM | -3.1
Cc1ccc(CC(=O)N2CCCC(c3nc(C)cs3)C2)cn1 (stereo unspecified) | cytotoxicity at 10 µM | -8.13

Give cytotoxicity at 10 µM for each listed item.
1. O[C@H]1[C@H](n2cc(-c3cncnc3)nn2)c2ccccc2C12CCNCC2
2. CCN(Cc1nc(COC)no1)Cc1ccccc1OCC(=O)O
3. O=C(NC1CC1)c1cnc(-c2noc3cc(N4CCCCC4)ccc23)s1
4. C[C@H]1CCCCN1CCCNc1nccc(-c2c[nH][nH]c2=O)n1
5. CCCn1cc(NC(=O)c2ccc(NC(=O)NC3CC3)cc2)ccc1=O
6. CCc1cc(NCc2cc3n(n2)CCCN(S(C)(=O)=O)C3)nc(C)n1
7. Cc1ncsc1CN1CCOC(C)(C(=O)N2CCOCC2)C1 (stereo unspecified)
8. Cc1ccc2c(c1)C1(CC2)CCN(CC(=O)O)CC1

Result:
1: -1.39; 2: -51.6; 3: 46; 4: -6.91; 5: 1.93; 6: -1.52; 7: -1.95; 8: 0.806
